# Experimental target: T1, human TIGIT on cells (human, UniProt Q495A1 22-141)
# T1 construct: also called Expi293 human TIGIT over-expressing cells
# T1 sequence: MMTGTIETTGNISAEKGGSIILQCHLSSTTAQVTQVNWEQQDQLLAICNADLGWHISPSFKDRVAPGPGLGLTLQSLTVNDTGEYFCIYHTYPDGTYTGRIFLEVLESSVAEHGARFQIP
# Measurement description: FACS KD on Expi293 human TIGIT over-expressing cells; ± 95% CI of the fit
Measure name: Kd (pM)
Numeric answer only, unit pM assumed.

See these solved cases before continuing.
>  <Binder>
CHA.9.543 (antibody, V domains shown) VH: EVQLQQSGPELVKPGASMKISCKASGYSFTGYTMNWVRQSHGKNLEWLGLIFPYNGGTSYNQNFKGKATLTVDTSSSTAYMELLSLTSVDSAVYYCARGVRFALDYWGQGTSVSVSS VL: DVVMTQTPLSLPVSFGDQVSISCRSSQSLANSYGNTYLSWYLHKPGQSPQLLIYEISNRFSGVPDRFSGSGSGTDFTLNISTIKPEDLGMYYCLQGTHQPWTFGGGTKLEIKR

>  <Kd, pM>
10200

$$$$
>  <Binder>
CPA.9.027 hIgG4 (antibody, V domains shown, phage-derived anti-TIGIT, human IgG4; also called CPA.9.027-H4) VH: EVQLVETGGGLIQPGRSLRLSCAASGFTFSSYAMHWVRQAPGKGLEWVAVISYDGSNKYYADSVKGRFTISRDNSKNTLYLQMNSLRAEDTAVYYCARDPLPLHYYGMDVWGQGTTVTVSS VL: QSALTQPRSASGNPGQRVTISCSGSSSNMGRRPVNWYQQIPGTAPKLLIYSQNQRPSGVPDRFSGSQSGTSASLTISGLQSEDEAEYFCAVWDDSLSSLQLGGGTQLAVLG

>  <Kd, pM>
170

$$$$

*Q* Which measured Kd value corresponds to CPA.9.049 hIgG4 (antibody, V domains shown, phage-derived anti-TIGIT, human IgG4; also called CPA.9.049-H4) VH: EVQLVETGGGLIQPGRSLRLSCAASGFTFSSYAMHWVRQAPGKGLEWVAVISYDGSNKYYADSVKGRFTISRDNSKNTLYLQMNSLRAEDTAVYYCARDPLPLHYYGMDVWGQGTTVTVSS VL: QSALTQPRSASGNPGQRVTISCSGSSSNMGRRPVNWYQQIPGTAPKLLIYSQNQRPSGVPDRFSGSQSGTSASLTISGLQSEDEAEYFCAVWDDSLFSLLLGGGTQLAVLG ?
*A* 260

*Q* Which measured Kd value corresponds to CPA.9.059 hIgG4 (antibody, V domains shown, phage-derived anti-TIGIT, human IgG4; also called CPA.9.059-H4) VH: EVQLVETGGGLIQPGGSLRLSCAASGFTVSSNYMSWVRQAPGKGLEWVSVIYSGGSTYYADSVKGRFTISRDNSKNTLYLQMNSLRAEDTAVYYCARGARYSYGQYPYWGQGTLVTVSS VL: DIQLTQSPSFLSASVGDRVTITCRASHDISSLFSWYQQKPGKAPKLLIYAASTLQTGVPSRFSGSASGTEFTLTISSLQPEDFATYYCLQLDSFPTWTFGQGTKVEIKR ?
*A* 290
